Tested on: MDA-MB-231 breast
Assay: NCI-60 one-dose screen, 48 h
Details: 10 µM unless noted
Compounds without any hit were thinned out: in the full panel of roughly 83,000, 20% have a hit. Calls of active or inactive are those of the source. The calls were made as follows: active = growth percent below 10; inactive = the rest.
Choose the fitting class; nothing outside active, inactive is accepted.

As a guide, the following entries are already answered.
- compound: "CC(=O)/C=C/c1ccc2c(c1)OCO2"
  group label: "inactive"
- compound: "CCN(CCO)C(Cc1ccccc1)c1ccccc1 (configuration not stated)"
  group label: "inactive"
- compound: "CC(=O)OC1CCC2C3CCC4=C/C(=N/OC(=O)c5ccc(N(CCCl)CCCl)cc5)CCC4(C)C3CC(C)C12 (configuration not stated)"
  group label: "inactive"

Ask: Record request — test call for `c1cc2c(c3c1CCNC3)OCO2`
Reply: inactive

Ask: Recorded test outcome, item CC(C)=CC1C(C(=O)OCc2cccc(Oc3ccccc3)c2)C1(C)C (configuration not stated)
Reply: inactive

Ask: Called result for `COc1ccc2c(c1)c(-c1nc(-c3c[nH]c4ncccc34)cs1)cn2CCN1CCOCC1`
Reply: inactive

Ask: Any idea what this test logged for `COC(=O)[C@@H](C[C@H](Cc1ccccc1)NC(=O)c1csc([C@@H](C[C@H](C(C)C)N(C)C(=O)[C@@H](NC(=O)[C@H]2CCCCN2C)C(C)C)OC(C)=O)n1)NC(=O)OCc1ccccc1` ?
Reply: inactive

Ask: What classification did `CN[C@]1(c2ccccc2Cl)CCCC[C@H]1NCCCN1CCN(C)CC1` end up with in this test?
Reply: inactive

Ask: Test call for this compound, please: `CC(=O)O[C@@H]1CC[C@]2(C)[C@H]3CC[C@]4(C)C(=O)CC[C@H]4[C@@H]3C[C@@H]3SC(N)=N[C@@]32C1`
Reply: inactive
